Values were extracted from patent US7276519B2.

Measured GI50 by item
# System: Rat2 fibroblasts stably transformed with v-Src/Hu Lck fusion gene (Homo sapiens, UniProt P06239, cells depend on it, form not given)
# Construct: Candidates are e.g. Schmidt-Ruppin A (P00524) or Prague C (P00526); The human Lck catalytic domain stands in place of the v-Src catalytic domain
# Sequence (P06239 whole entry, change not shown, the tested form may be a part): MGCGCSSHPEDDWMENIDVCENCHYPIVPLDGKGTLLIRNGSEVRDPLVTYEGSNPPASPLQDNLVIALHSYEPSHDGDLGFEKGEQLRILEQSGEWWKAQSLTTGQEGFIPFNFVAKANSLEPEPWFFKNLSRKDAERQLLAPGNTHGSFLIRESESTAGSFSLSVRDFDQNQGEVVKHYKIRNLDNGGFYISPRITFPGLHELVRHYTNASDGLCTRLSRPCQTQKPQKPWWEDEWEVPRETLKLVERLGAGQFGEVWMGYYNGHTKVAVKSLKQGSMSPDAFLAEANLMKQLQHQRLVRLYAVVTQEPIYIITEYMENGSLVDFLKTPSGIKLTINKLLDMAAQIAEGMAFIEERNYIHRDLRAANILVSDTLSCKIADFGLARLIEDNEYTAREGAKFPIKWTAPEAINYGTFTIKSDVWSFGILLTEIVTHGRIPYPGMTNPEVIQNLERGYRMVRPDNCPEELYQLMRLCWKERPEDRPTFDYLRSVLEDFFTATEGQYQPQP
# Test Description: Anchorage independent Lck-transformed fibroblast proliferation assay
# Assay type: cell-based, rat
# Experimental Context: Table 3; read-out: Lck Cells IC50
# Description: Anchorage Independent Lck-Transformed Fibroblast Proliferation Assay Rat2 fibroblasts stably transformed with a plasmid containing a CMV promotor controlled v-Src/Hu Lck fusion gene in which the catalytic domain of human Lck was inserted in place of the v-Src catalytic domain in the v-Src gene are used for the measurement of src dependent suspension growth. Ultra-low cluster plates (Costar # 3474) are seeded with 10,000 cells per well on Day 1. […]
Value Type: GI50

>  <Chemical String>
COc1cc(Nc2c(C#N)cnc3cc(/C=C/n4nccn4)sc23)c(Cl)cc1Cl

>  <Value Reported>
> 10 µM

$$$$
>  <Chemical String>
COc1cc(Nc2c(C#N)cnc3cc(-c4ccc(CN5CCN(c6ccccn6)CC5)cc4)sc23)c(Cl)cc1Cl

>  <Value Reported>
> 10 µM

$$$$
>  <Chemical String>
COc1cc(Nc2c(C#N)cnc3cc(C#Cc4cnn(CCN5CCOCC5)c4)sc23)c(Cl)cc1Cl

>  <Value Reported>
> 10 µM

$$$$
>  <Chemical String>
COc1cc(Nc2c(C#N)cnc3cc(-c4cnn(CCN5CCOCC5)c4)sc23)c(Cl)cc1Cl

>  <Value Reported>
> 10 µM

$$$$
>  <Chemical String>
COc1cc(Nc2c(C#N)cnc3cc(C#Cc4cncn4C)sc23)c(Cl)cc1Cl

>  <Value Reported>
> 10 µM

$$$$
>  <Chemical String>
COc1cc(Nc2c(C#N)cnc3c(-c4ccc(CN5CCOCC5)cc4)csc23)c(Cl)cc1Cl

>  <Value Reported>
> 10 µM

$$$$
>  <Chemical String>
COc1cc(Nc2c(C#N)cnc3cc(-c4ccsc4CN4CCN(C)CC4)sc23)c(Cl)cc1Cl

>  <Value Reported>
3.4 µM

$$$$
>  <Chemical String>
COc1cc(Nc2c(C#N)cnc3c(-c4ccc(C=O)cc4)csc23)c(Cl)cc1Cl

>  <Value Reported>
> 10 µM

$$$$

----------
>  <Molecule>
COc1cc(Nc2c(C#N)cnc3cc(-c4ccc(CN5CCOCC5)cn4)sc23)c(Cl)cc1Cl [Example 108]

>  <melting point>
227 to 229 °C

$$$$
>  <Molecule>
COc1cc(Nc2c(C#N)cnc3cc(-c4ccc(CN5CCN(CCO)CC5)cc4)sc23)c(Cl)cc1Cl [Example 17]

>  <melting point>
189 to 190 °C

$$$$
>  <Molecule>
COc1cc(Nc2c(C#N)cnc3cc(-c4ccc(C(N)=O)cc4)sc23)c(Cl)cc1Cl [Example 20]

>  <melting point>
> 300 °C

$$$$
>  <Molecule>
COc1cc(Nc2c(C#N)cnc3cc(-c4ccc(C(=O)N5CCN(C)CC5)cc4)sc23)c(Cl)cc1Cl [Example 117]

>  <melting point>
240 to 243 °C (dec.)

$$$$

----------
Value Type: melting point

>  <Chemical String>
COc1cc(Nc2c(C#N)cnc3sc(C)cc23)c(Cl)cc1Cl

>  <Value Reported>
179 to 181 °C

$$$$
>  <Chemical String>
Cn1ccnc1Sc1ccc(Nc2c(C#N)cnc3cc(-c4ccc(CN5CCOCC5)cc4)sc23)cc1Cl

>  <Value Reported>
150 to 152 °C

$$$$
>  <Chemical String>
N#Cc1cnc2cc(-c3ccc(C=O)cc3)sc2c1Nc1ccc(Oc2ccccc2)cc1

>  <Value Reported>
230 to 232 °C

$$$$
>  <Chemical String>
COc1cc(Nc2c(C#N)cnc3cc(-c4ccc(CN(C)C)cc4)sc23)cc(OC)c1OC

>  <Value Reported>
199 to 201 °C

$$$$
